Attribution: ChEMBL document CHEMBL4052765

- Test system: Staphylococcus aureus
- EXPERIMENT: Antibacterial activity against erythromycin-susceptible Staphylococcus aureus ATCC 25923 after 24 h by NCCLS broth microdilution method
- Type: functional
- ASSAY SETUP: ATCC 25923, 24 h
Threshold-based label: MIC under 30 µg/mL gives true (1), MIC not under 30 µg/mL gives false (0).

STRUCTURE AS SMILES | ASSAY SYSTEM | LABEL CLASS
CC[C@H]1OC(=O)[C@H](C)C(=O)[C@H](C)[C@@H](O[C@@H]2O[C@H](C)C[C@H](N(C)C)[C@H]2O)[C@](C)(OC)C[C@@H](C)C(=O)[C@H](C)[C@@H](OC(=O)NCCNC(=O)/C=C/c2ccc(Cl)cc2Cl)[C@]1(C)O | Staphylococcus aureus | true (1)
CC[C@H]1OC(=O)[C@H](C)C(=O)[C@H](C)[C@@H](O[C@@H]2O[C@H](C)C[C@H](N(C)C)[C@H]2O)[C@](C)(OC)C[C@@H](C)C(=O)[C@H](C)[C@@H](OC(=O)NCCNC(=O)/C=C/c2ccc(Br)cc2)[C@]1(C)O | Staphylococcus aureus | false (0)
CC[C@H]1OC(=O)[C@H](C)C(=O)[C@H](C)[C@@H](O[C@@H]2O[C@H](C)C[C@H](N(C)C)[C@H]2O)[C@](C)(OC)C[C@@H](C)C(=O)[C@H](C)[C@@H](OC(=O)NCCNC(=O)c2ccc(F)cc2)[C@]1(C)O | Staphylococcus aureus | false (0)
CC[C@H]1OC(=O)[C@H](C)C(=O)[C@H](C)[C@@H](O[C@@H]2O[C@H](C)C[C@H](N(C)C)[C@H]2O)[C@](C)(OC)C[C@@H](C)C(=O)[C@H](C)[C@@H](OC(=O)NCCNC(=O)c2ccccc2O)[C@]1(C)O | Staphylococcus aureus | false (0)
CC[C@H]1OC(=O)[C@H](C)C(=O)[C@H](C)[C@@H](O[C@@H]2O[C@H](C)C[C@H](N(C)C)[C@H]2O)[C@](C)(OC)C[C@@H](C)C(=O)[C@H](C)[C@@H](OC(=O)NCCNC(=O)/C=C/c2cccc3ccccc23)[C@]1(C)O | Staphylococcus aureus | true (1)
CC[C@H]1OC(=O)[C@H](C)[C@@H](O[C@H]2C[C@@](C)(OC)[C@@H](O)[C@H](C)O2)[C@H](C)[C@@H](O[C@@H]2O[C@H](C)C[C@H](N(C)C)[C@H]2O)[C@](C)(O)C[C@@H](C)CN(C)[C@H](C)[C@@H](O)[C@]1(C)O | Staphylococcus aureus | true (1)
CC[C@H]1OC(=O)[C@H](C)C(=O)[C@H](C)[C@@H](O[C@@H]2O[C@H](C)C[C@H](N(C)C)[C@H]2O)[C@](C)(OC)C[C@@H](C)C(=O)[C@H](C)[C@@H](OC(=O)NCCNC(=O)/C=C/c2ccc(O)cc2)[C@]1(C)O | Staphylococcus aureus | false (0)
CC[C@H]1OC(=O)[C@H](C)C(=O)[C@H](C)[C@@H](O[C@@H]2O[C@H](C)C[C@H](N(C)C)[C@H]2O)[C@](C)(OC)C[C@@H](C)C(=O)[C@H](C)[C@@H](OC(=O)NCCNC(=O)c2ccc(C(C)(C)C)cc2)[C@]1(C)O | Staphylococcus aureus | false (0)
